Target Entity: hSLC13A5 (Homo sapiens, UniProt Q86YT5)
Sequence (Q86YT5 whole entry): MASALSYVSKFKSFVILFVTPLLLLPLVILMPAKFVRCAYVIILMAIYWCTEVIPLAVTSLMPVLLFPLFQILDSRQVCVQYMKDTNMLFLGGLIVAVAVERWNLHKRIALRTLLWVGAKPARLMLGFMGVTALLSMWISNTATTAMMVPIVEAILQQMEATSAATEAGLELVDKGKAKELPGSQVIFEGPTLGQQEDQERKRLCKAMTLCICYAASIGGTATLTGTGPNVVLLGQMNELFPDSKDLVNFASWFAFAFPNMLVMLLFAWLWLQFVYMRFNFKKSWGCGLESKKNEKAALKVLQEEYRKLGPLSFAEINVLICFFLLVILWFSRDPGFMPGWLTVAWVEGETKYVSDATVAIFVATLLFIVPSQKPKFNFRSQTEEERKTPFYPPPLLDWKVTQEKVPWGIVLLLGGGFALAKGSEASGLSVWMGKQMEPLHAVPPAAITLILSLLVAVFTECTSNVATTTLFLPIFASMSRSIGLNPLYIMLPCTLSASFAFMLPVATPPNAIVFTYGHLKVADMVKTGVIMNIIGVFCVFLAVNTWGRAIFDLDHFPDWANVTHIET
Procedure Details: Recombinant hSLC13A5/14C-citrate uptake assay
Type: cell-based
Cond: HEK293 Flp-In cells over-expressing hSLC13A5; WGA-PVT SPA beads; 14C-citrate approx. 2 μM; 4 h
The reader will find reported pIC50 values listed item by item below.
pIC50 is defined as minus the log10 of a concentration measured in mol/L.

These solved cases illustrate the format of a correct answer.
CCOc1cc(Cl)cc(S(=O)(=O)N2CCC(C(=O)NCc3nccs3)CC2)c1    6.81
CCOc1cc(Cl)cc(S(=O)(=O)N2CCC(C(=O)NCc3ccc(F)cn3)CC2)c1    6.72
COc1ccccc1CNC(=O)C1CCN(S(=O)(=O)c2cc(C)cc(C)c2)CC1    6.15
O=C(NCc1ccccc1F)C1CCN(S(=O)(=O)c2cc(Cl)cc(Cl)c2)CC1    7.06

Now look at this one.
Looking up "CCOc1cc(Cl)cc(S(=O)(=O)N2CCC(C(=O)NCc3ccc(F)cc3)CC2)c1" , I see its pIC50 listed as 7.18

====

Target Entity: UniProtKB Q86YT5
Procedure Details: HepG2/14C-citrate uptake assay
Format: cell-based
Set-up: HepG2 cells endogenously express hSLC13A5 transporter which is responsible for the uptake of citrate into these cells; endogenous in cells; host or cells: HepG2
Cond: HepG2 cells endogenously expressing hSLC13A5; Cytostar-T; 14C-citrate ~1.8 μM; incubation over night
pIC50: −log10 of the molar value.
Outcome: MET for pIC50 of at least 7; NOT MET for anything lower.

COc1cc(Cl)cc(S(=O)(=O)N2CCC(C(=O)NCc3ccc(F)cn3)CC2)c1    NOT MET

Req: Check the entry "Cc1cc(C)cc(S(=O)(=O)N2CCC(C(=O)NCc3ccccc3F)CC2)c1" : does pIC50 equal or exceed 7?
Resp: MET

Req: Check the entry "COc1ncccc1CNC(=O)C1CCN(S(=O)(=O)c2cc(C)cc(Br)c2)CC1" : does pIC50 equal or exceed 7?
Resp: NOT MET

Req: Check the entry "CCOc1cc(Cl)cc(S(=O)(=O)N2CCC(C(=O)NCc3ccc(F)cn3)CC2)c1" : does pIC50 equal or exceed 7?
Resp: MET

====

Target Entity: hSLC13A5 (Homo sapiens, UniProt Q86YT5)
Procedure Details: HepG2/14C-citrate uptake assay
Format: cell-based
Parameters: HepG2 cells endogenously express hSLC13A5 transporter which is responsible for the uptake of citrate into these cells; endogenous in cells; host or cells: HepG2
Cond: HepG2 cells endogenously expressing hSLC13A5; Cytostar-T; 14C-citrate ~1.8 μM; incubation over night
The reader will find reported pIC50 values listed item by item below.
pIC50 is defined as minus the log10 of a concentration measured in mol/L.

These solved cases illustrate the format of a correct answer.
O=C(NCc1ccccc1F)C1CCN(S(=O)(=O)c2cc(Cl)cc(Cl)c2)CC1 [(I-2)]    7.46
O=C(NCc1ccccn1)C1CCN(S(=O)(=O)c2cc(Br)cc(Br)c2)CC1 [(I-37)]    6.60
N#Cc1ccc(CNC(=O)C2CCN(S(=O)(=O)c3cc(Br)cc(Br)c3)CC2)cc1 [(I-32)]    7.64
O=C(NCc1ccc(Cl)nc1)C1CCN(S(=O)(=O)c2cc(Cl)cc(Cl)c2)CC1 [(I-3)]    6.33
O=C(NCc1ccccc1Br)C1CCN(S(=O)(=O)c2cc(Cl)cc(Cl)c2)CC1 [(I-6)]    7.09

Looking up Cc1cnc(CNC(=O)C2CCN(S(=O)(=O)c3cc(Cl)cc(Cl)c3)CC2)s1 [(I-27)] , I see its pIC50 listed as 6.95

Looking up O=C(NCc1ccc(Br)cc1)C1CCN(S(=O)(=O)c2cc(Cl)cc(Cl)c2)CC1 [(I-7)] , I see its pIC50 listed as 7.52

Looking up O=C(NCc1cccnc1)C1CCN(S(=O)(=O)c2cc(Br)cc(Br)c2)CC1 [(I-36)] , I see its pIC50 listed as 6.35

Looking up O=C(NCc1ccc(F)cc1)C1CCN(S(=O)(=O)c2cc(Br)cc(Br)c2)CC1 [(I-40)] , I see its pIC50 listed as 7.77

Looking up CCOc1cc(Cl)cc(S(=O)(=O)N2CCC(C(=O)NCc3ccccn3)CC2)c1 [(I-53)] , I see its pIC50 listed as 6.96

Looking up N#Cc1ccc(CNC(=O)C2CCN(S(=O)(=O)c3cc(Cl)cc(Cl)c3)CC2)cc1 [Example (I-1)] , I see its pIC50 listed as 7.13
